The following molecules are shown together with reported TGI values.
tested on: NCI-H460 lung; experiment: NCI tumour cell line growth inhibition, 48 h

Use these answered entries as a reference point.
{"molecule": "N#CC(C(=O)C(=O)Nc1c(Cl)cccc1Cl)c1ccccc1 (stereo not given)", "assayed-system": "NCI-H460 lung", "TGI": "> 100 µM"}
{"molecule": "OCc1cc2c(cn1)[nH]c1ccc(NCc3ccccc3)cc12", "assayed-system": "NCI-H460 lung", "TGI": "80.2 µM"}
{"molecule": "CCN=c1sc2c(n1NC(=O)c1cc3ccc1CCc1ccc(cc1)CC3)C(=O)c1ccccc1C2=O", "assayed-system": "NCI-H460 lung", "TGI": "4.86 µM"}

The molecule listed as CCCCCCCCCCCCCCCCCCOc1ccccc1CC(=O)NCC[N+]1(C)CCOCC1 has a reported TGI of 17.4 µM
